Exercise: for every item that follows, state its recorded inhibition at 3 µM.
- TARGET_OR_SYSTEM: N-type calcium channel (Homo sapiens)
- Construct: endogenous in cells
- Sequence (Q00975 whole entry): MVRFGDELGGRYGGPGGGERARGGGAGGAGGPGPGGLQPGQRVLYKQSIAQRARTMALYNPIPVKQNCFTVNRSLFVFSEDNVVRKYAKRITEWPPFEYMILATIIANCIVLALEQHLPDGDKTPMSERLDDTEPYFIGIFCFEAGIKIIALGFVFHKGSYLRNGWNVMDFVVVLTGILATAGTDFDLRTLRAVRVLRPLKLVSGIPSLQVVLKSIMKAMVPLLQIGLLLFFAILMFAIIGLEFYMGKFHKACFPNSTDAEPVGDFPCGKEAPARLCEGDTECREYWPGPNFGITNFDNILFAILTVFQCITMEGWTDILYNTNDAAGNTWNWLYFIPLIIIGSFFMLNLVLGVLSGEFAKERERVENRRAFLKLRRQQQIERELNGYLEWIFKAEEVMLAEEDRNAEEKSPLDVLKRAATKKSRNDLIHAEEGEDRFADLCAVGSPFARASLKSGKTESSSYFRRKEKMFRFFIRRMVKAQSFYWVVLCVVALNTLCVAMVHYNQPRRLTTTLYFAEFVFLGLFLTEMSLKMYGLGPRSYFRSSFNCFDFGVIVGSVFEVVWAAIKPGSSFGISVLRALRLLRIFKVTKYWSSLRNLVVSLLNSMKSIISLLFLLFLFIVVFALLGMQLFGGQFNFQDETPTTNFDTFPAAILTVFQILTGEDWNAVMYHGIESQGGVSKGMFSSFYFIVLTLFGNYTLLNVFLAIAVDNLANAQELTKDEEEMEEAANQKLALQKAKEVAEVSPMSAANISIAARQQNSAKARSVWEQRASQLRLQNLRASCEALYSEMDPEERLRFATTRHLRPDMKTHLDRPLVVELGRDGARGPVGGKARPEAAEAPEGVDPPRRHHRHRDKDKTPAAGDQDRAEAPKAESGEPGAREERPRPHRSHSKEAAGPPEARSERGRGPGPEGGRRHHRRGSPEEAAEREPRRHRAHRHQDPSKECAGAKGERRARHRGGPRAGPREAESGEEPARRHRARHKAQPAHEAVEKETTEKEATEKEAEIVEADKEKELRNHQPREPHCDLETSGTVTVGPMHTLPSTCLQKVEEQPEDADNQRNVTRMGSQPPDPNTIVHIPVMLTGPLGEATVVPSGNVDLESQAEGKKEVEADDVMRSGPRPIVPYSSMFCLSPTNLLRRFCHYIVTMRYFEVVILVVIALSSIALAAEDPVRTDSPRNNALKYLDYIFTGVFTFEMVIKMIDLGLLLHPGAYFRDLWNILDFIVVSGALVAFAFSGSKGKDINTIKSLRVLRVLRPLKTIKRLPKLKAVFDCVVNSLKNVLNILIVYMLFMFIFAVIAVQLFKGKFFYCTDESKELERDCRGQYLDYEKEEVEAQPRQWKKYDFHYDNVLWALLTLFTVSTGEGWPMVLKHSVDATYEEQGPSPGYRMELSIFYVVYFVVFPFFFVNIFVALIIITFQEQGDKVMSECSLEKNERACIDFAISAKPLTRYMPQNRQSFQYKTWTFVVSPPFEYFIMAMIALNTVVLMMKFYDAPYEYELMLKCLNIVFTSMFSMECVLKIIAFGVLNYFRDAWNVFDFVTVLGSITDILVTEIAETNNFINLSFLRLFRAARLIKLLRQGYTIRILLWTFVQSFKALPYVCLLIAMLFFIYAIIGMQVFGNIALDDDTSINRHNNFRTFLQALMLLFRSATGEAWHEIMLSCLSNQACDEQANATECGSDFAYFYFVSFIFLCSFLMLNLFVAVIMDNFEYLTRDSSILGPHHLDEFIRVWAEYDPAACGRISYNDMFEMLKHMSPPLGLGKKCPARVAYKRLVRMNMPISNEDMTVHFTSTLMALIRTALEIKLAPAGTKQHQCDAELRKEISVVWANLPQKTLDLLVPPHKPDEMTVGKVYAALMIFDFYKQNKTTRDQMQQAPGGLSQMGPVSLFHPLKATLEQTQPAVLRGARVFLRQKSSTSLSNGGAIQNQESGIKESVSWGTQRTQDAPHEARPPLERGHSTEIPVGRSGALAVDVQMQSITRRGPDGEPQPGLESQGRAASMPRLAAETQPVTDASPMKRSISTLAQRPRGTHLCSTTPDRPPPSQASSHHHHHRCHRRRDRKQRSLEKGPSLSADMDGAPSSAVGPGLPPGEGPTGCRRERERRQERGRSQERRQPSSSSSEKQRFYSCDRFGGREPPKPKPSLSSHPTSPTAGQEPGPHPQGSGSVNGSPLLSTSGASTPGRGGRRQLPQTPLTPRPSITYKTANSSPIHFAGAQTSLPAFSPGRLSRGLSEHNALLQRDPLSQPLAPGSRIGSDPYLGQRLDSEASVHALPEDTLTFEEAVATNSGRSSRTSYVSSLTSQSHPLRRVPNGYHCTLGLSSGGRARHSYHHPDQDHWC
- ASSAY_OVERVIEW: Determination of inhibitory activity on N-type calcium channel (Fura-2 calcium influx, KCl depolarization, with nifedipine)
- Format: cell-based
- CONDITION_SUMMARY: compound at final concentration of 3 μM, depolarized by 80 mM potassium chloride, Fura-2 fluorescence, read-out: Inhibitory activity on Ca influx (%)
Give me the value, and tack the unit on after it.

Known results for molecules:
CC(C)(C)OC(=O)N[C@@H](CCC(=O)OCc1ccc([N+](=O)[O-])cc1)C(=O)OC1CCCC1 [Example 2(29)] = 75%
COc1ccc(CNC(=O)[C@H](CSCC2CCCCC2)NC(=O)OC(C)(C)C)cc1 [Example 2(80)] = 87%
COc1ccc(CNC(=O)[C@H](CSCC2CCCCC2)NC(=O)[C@@H]2CSCN2C(=O)OC(C)(C)C)cc1 [Example 6(44)] = 86%
CC(C)(C)OC(=O)N[C@@H](COCC1CCCCC1)C(=O)NCc1ccc([N+](=O)[O-])cc1 [Example 2(86)] = 83%

Note to self: inhibition at 3 µM recorded for COc1ccc(CNC(=O)[C@H](COCC2CCCCC2)NC(=O)C2CCCCC2)cc1 [Example 6(27)] was 72%

The measured values listed here are drawn from patent US7166590B2.
